Tested on: MCF7
EXPERIMENT NOTES: Antiproliferative activity against estrogen-positive human MCF7 cells
Format: functional
OUTCOME MEASURE: GI50 (µM)

1. CCc1cc2c(cc1OS(N)(=O)=O)CC[C@@H]1[C@@H]2CC[C@]2(C)/C(=C/CO)CC[C@@H]12 | 10
2. CCc1cc2c(cc1O)CC[C@@H]1[C@@H]2CC[C@]2(C)[C@@H](CCOC)CC[C@@H]12 | 24.8
3. CCc1cc2c(cc1OS(N)(=O)=O)CC[C@@H]1[C@@H]2CC[C@]2(C)[C@@H](CCOS(N)(=O)=O)CC[C@@H]12 | 5.64

(1) CCOC(=O)/C=C1/CC[C@H]2[C@@H]3CCc4cc(O)c(CC)cc4[C@H]3CC[C@]12C
(2) CCc1cc2c(cc1O)CC[C@@H]1[C@@H]2CC[C@]2(C)[C@@H](CCO)CC[C@@H]12
Could you tell me which of these two has the smaller GI50 figure? First: 1 Second: 2 Write down the label attached to your selection. 2

Origin of measurements: ChEMBL document CHEMBL1811760
